# Test system: phosphodiesterase
# assayProtocol: Inhibition of phosphodiesterase isolated from rat brain tissue (radioisotopic technique, tritium-labelled c-AMP)
# Type: biochemical
# conditions: 1 × 10^-5 moles/lit.; 20 minutes incubation; % of control
Counter-ions that a name gives are not always drawn.
assayReadout: Inhibition (%) obtained by 1 × 10^-5 moles/lit. concentrations of the test compounds

Consider the following illustrative entries.
[[record]]
compound = "CC[C@@]12C=C(C(=O)OC)n3c4c(c5ccccc53)CCN(CCC1)[C@H]42"
readoutvalue = 20.3

[[record]]
compound = "CC[C@@]12C=C(C(=O)OC)n3c4c(c5ccc(OC)cc53)CCN(CCC1)[C@H]42 [Apovincine-KHSO4]"
readoutvalue = 49.0

[[record]]
compound = "CC[C@@]12C=C(C(=O)OC)n3c4c(c5ccc(OC)cc53)CCN(CCC1)[C@H]42 [Apovincine-tartrate]"
readoutvalue = 48.7

[[record]]
compound = "CC[C@@]12C=C(C(N)=O)n3c4c(c5ccccc53)CCN(CCC1)[C@H]42 [Apovincaminic acid amide]"
readoutvalue = 22.0


(1) CCOC(=O)C1=C[C@]2(CC)CCCN3CCc4c(n1c1cc(OC)ccc41)[C@@H]32 [Apovincinic acid ethyl ester tartrate]
(2) CC[C@@]12C=C(COC(C)=O)n3c4c(c5ccc(OC)cc53)CCN(CCC1)[C@H]42 [Tartrate salt of apovincinol-acetate]
### Prompt Hi! Which is lower in terms of Inhibition (%) obtained by 1 × 10^-5 moles/lit. concentrations of the test compounds, the first one 1 or the second one 2 ? Label of pick, please.
### Response 1
(1: 23.7%, 2: 34.8%)
